Listed compounds paired with reported pKi
Biological target: recombinant RORγ Ligand Binding Domain (LBD) (Homo sapiens (Human), UniProt P51449)
Sequence (P51449 269-508): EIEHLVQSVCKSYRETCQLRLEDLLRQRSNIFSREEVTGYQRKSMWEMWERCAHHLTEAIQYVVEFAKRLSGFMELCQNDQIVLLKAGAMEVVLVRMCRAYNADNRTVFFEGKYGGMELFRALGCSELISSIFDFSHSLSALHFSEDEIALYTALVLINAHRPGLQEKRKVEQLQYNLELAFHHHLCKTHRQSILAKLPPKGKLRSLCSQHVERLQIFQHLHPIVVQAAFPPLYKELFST
Assay: Radio-Ligand RORγ Binding Assay (Assay 1)
Conditions: SPA competition with 25-hydroxy [26,27-3H]-cholesterol, cell-free; read-out: RORγ Binding Ki Range
pKi: −log10 of the molar value.
MEASURED_PARAMETER: pKi

CC(C)[C@H]1c2ncc(C(=O)NCCN3CCOCC3)cc2CN1Cc1ccc(C(F)(F)F)cc1 = < 6.00
CCS(=O)(=O)c1ccc(CNC(=O)c2cnc3c(c2)C(=O)N(Cc2ccc(Cl)cc2)C3(O)C(C)C)cc1 (centres unmarked) = 6.00 to 7.00
CNS(=O)(=O)c1ccc(CNC(=O)c2cnc3c(c2)CN(Cc2ccc(C(F)(F)F)cc2)[C@H]3C(C)C)cc1 = > 7.00
CC(C)[C@H]1c2ncc(C(=O)NCc3ccc(S(C)(=O)=O)cc3)cc2CN1Cc1ccc(C#N)cc1 = 6.00 to 7.00
CC(C)[C@H]1c2ncc(C(=O)NC[C@@H]3CCN(C(=O)OC(C)(C)C)C[C@H]3O)cc2CN1Cc1ccc(C(F)(F)F)cc1 = < 6.00
CCS(=O)(=O)c1ccc(CNC(=O)c2cnc3c(c2)C(=O)N(C[C@H]2CC[C@H](C(F)(F)F)CC2)[C@H]3C(C)C)nc1 = > 7.00
CC(C)[C@H]1c2ncc(C(=O)NCc3ccc(C(=O)O)cn3)cc2CN1Cc1ccc(C(F)(F)F)cc1 = 6.00 to 7.00
CC(C)[C@H]1c2ncc(C(=O)NCc3ccncc3)cc2CN1Cc1ccc(C(F)(F)F)cc1 = 6.00 to 7.00
COC(=O)c1ccc(CNC(=O)c2cnc3c(c2)CN(Cc2ccc(C(F)(F)F)cc2)[C@H]3C(C)C)cc1 = 6.00 to 7.00
CCS(=O)(=O)c1ccc(CNC(=O)c2cnc3c(c2)[C@H](C)N(Cc2ccc(Cl)cc2)[C@H]3C(C)C)cc1 = > 7.00
COC(=O)N1CCC(CNC(=O)c2cnc3c(c2)CN(Cc2ccc(C(F)(F)F)cc2)[C@H]3C(C)C)C1 (some centres unmarked) = 6.00 to 7.00
CCS(=O)(=O)c1ccc(CC(=O)Nc2cnc3c(c2)CN(C[C@H]2CC[C@H](C(F)(F)F)CC2)[C@H]3C(C)C)cc1 = > 7.00
CCS(=O)(=O)CCNC(=O)c1cnc2c(c1)CN(Cc1ccc(C(F)(F)F)cc1)[C@H]2C(C)C = < 6.00
COC(=O)C(Cc1cc(=O)[nH]c2ccccc12)NC(=O)c1cnc2c(c1)CN(Cc1ccc(C(F)(F)F)cc1)[C@H]2C(C)C (some centres unmarked) = < 6.00

The values you see were collected from patent US9624217B2.
